Listed here: molecules with reported AC50 for Sodium-dependent serotonin transporter (Homo sapiens, UniProt P31645).

Worked cases, AC50 given:
>  <molecule>
CC(C)OC(=O)[C@H](C)N[P@](=O)(OC[C@H]1O[C@@H](n2ccc(=O)[nH]c2=O)[C@](C)(F)[C@@H]1O)Oc1ccccc1

>  <target.or.system>
Sodium-dependent serotonin transporter (Homo sapiens, UniProt P31645); further: assay procedure not described here
Sequence (P31645 whole entry): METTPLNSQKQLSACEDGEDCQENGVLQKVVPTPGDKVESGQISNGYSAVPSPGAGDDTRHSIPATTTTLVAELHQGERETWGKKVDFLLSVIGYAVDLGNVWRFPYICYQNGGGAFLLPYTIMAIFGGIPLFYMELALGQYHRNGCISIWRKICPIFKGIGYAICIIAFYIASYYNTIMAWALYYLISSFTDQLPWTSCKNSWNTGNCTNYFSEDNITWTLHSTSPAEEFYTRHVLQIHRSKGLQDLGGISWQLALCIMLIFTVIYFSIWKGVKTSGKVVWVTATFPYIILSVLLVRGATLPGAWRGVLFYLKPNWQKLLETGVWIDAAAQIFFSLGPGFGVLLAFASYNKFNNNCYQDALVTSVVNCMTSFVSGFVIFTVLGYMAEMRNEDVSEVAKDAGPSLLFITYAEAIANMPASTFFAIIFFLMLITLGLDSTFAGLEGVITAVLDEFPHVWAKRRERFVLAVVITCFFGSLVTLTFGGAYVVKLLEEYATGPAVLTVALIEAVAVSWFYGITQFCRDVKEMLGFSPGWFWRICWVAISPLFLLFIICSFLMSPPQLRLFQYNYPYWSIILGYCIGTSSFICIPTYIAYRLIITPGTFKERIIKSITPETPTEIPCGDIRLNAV

>  <AC50>
> 30 µM

$$$$
>  <molecule>
O=C(O)CCn1c2c(c3ccccc31)C[C@H](NS(=O)(=O)c1ccc(F)cc1)CC2

>  <target.or.system>
Sodium-dependent serotonin transporter (Homo sapiens, UniProt P31645); further: assay procedure not described here

>  <AC50>
> 30 µM

$$$$
>  <molecule>
Cc1ccc(O)c2ncccc12

>  <target.or.system>
Sodium-dependent serotonin transporter (Homo sapiens, UniProt P31645); further: assay procedure not described here

>  <AC50>
> 30 µM

$$$$
>  <molecule>
Cc1cc2c(cc1CC(=O)c1sccc1S(=O)(=O)Nc1onc(C)c1Cl)OCO2

>  <target.or.system>
Sodium-dependent serotonin transporter (Homo sapiens, UniProt P31645); further: assay procedure not described here

>  <AC50>
> 30 µM

$$$$
>  <molecule>
CCN(CC)CCNc1ccc(C)c2sc3ccccc3c(=O)c12

>  <target.or.system>
Sodium-dependent serotonin transporter (Homo sapiens, UniProt P31645); further: assay procedure not described here

>  <AC50>
6.25 µM

$$$$

AC50 reading for COc1cc(Nc2c(C#N)cnc3cc(OCCCN4CCN(C)CC4)c(OC)cc23)c(Cl)cc1Cl : 3.21 µM

// CCC(=O)c1c(O)cc(O)cc1O : AC50 value = > 30 µM

The reported AC50 of the molecule COc1cc(NCc2ccc3nc(N)nc(N)c3c2C)cc(OC)c1OC [TRIMETREXATE] was > 30 µM
